Answer each item with its documented pKd.
target: insulin (Homo sapiens); construct: purchased Roche 1376497; assay: Kinetic analysis using surface plasmon resonance (Biacore T200), immobilized insulin; assay type: binding; conditions: Table 3, mutation study 1; MGSSHHHHHHGSS-[Y#####]
Sequence (P01308 25-54 limits assumed): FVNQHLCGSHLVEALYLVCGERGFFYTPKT
Sequence (P01308 90-110 limits assumed): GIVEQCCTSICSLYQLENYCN
Would you please state pKd, meaning minus log10 of the concentration in mol/L, as a bare number?

Task: I am curious: what pKd value has been reported for Y00271: insulin binding Y variant, Y00032 with E26Q, SEQ ID NO:118 (LAEAKEAAIAELDSKGVGAYQKSFIQLAKSVEHVELLKEAILADLP; Engineered insulin binding Y variant) ?
Result: 7.33

Task: I am curious: what pKd value has been reported for Y00265: insulin binding Y variant, Y00032 with V17I, SEQ ID NO:112 (LAEAKEAAIAELDSKGIGAYQKSFIELAKSVEHVELLKEAILADLP; Engineered insulin binding Y variant) ?
Result: 6.92

Task: I am curious: what pKd value has been reported for Y00032: insulin binding Y variant from Ylib001Naive.I, SEQ ID NO:90 (LAEAKEAAIAELDSKGVGAYQKSFIELAKSVEHVELLKEAILADLP; Engineered insulin binding Y variant) ?
Result: 7.20

Task: I am curious: what pKd value has been reported for Y00273: insulin binding Y variant, Y00032 with E32Q, SEQ ID NO:120 (LAEAKEAAIAELDSKGVGAYQKSFIELAKSVQHVELLKEAILADLP; Engineered insulin binding Y variant) ?
Result: 7.11

---

biological target: insulin (Homo sapiens); construct: purchased Roche 1376497; assay: Kinetic analysis using surface plasmon resonance (Biacore T200), immobilized insulin; format: binding; settings: Table 9, mutation study 5; MGSSHHHHHHGSS-[Y#####]-A
Answer each item with its documented ka.
Answer with a number only, understood to be in M⁻¹ s⁻¹.

Task: I am curious: what ka value has been reported for Y02714: insulin binding Y variant, Y00310 with Q26E, SEQ ID NO:154 (LAEAKEAAIAELDSKGVGAYQIKFIEIAHTVEEVQLMKQAILADLPA; Engineered insulin binding Y variant) ?
Result: 290000

Task: I am curious: what ka value has been reported for Y02710: insulin binding Y variant, Y00358 with K15Y, SEQ ID NO:150 (LAEAKEAAIAELDSYGVGAAKIKWIQDAKSVETVQFLKQAILAELPA; Engineered insulin binding Y variant) ?
Result: 190000

Task: I am curious: what ka value has been reported for Y02713: insulin binding Y variant, Y00310 with K15Y, SEQ ID NO:153 (LAEAKEAAIAELDSYGVGAYQIKFIQIAHTVEEVQLMKQAILADLPA; Engineered insulin binding Y variant) ?
Result: 110000

Task: I am curious: what ka value has been reported for Y02715: insulin binding Y variant, Y00358 with K15Y Q26E, SEQ ID NO:155 (LAEAKEAAIAELDSYGVGAAKIKWIEDAKSVETVQFLKQAILAELPA; Engineered insulin binding Y variant) ?
Result: 6700

---

Answer each item with its documented Tm.
assay: Circular dichroism spectroscopy analysis (CD spectra, variable temperature measurement, refolding); format: physicochemical; details: Table 4, mutation study 2; MGSSHHHHHHGSS-[Y#####]
Answer with a number only, understood to be in °C.

Task: I am curious: what Tm value has been reported for Y00270: insulin binding Y variant, Y00032 with K22I + S23K, SEQ ID NO:117 (LAEAKEAAIAELDSKGVGAYQIKFIELAKSVEHVELLKEAILADLP; Engineered insulin binding Y variant) ?
Result: 52

Task: I am curious: what Tm value has been reported for Y00290: C4 binding Y variant, Y00262 with E35Q + A43K, SEQ ID NO:27 (LAEAKEAAIAELDSKGINEAIIKKIERAESVEEVQYWKEEILKQLP; Engineered C4 binding Y variant) ?
Result: 69

Task: I am curious: what Tm value has been reported for Y00288: C4 binding Y variant, Y00262 with E39Q, SEQ ID NO:25 (LAEAKEAAIAELDSKGINEAIIKKIERAESVEEVEYWKQEILAQLP; Engineered C4 binding Y variant) ?
Result: 66

Task: I am curious: what Tm value has been reported for Y00292: insulin binding Y variant, Y00032 with S23K + E35Q + E39Q, SEQ ID NO:124 (LAEAKEAAIAELDSKGVGAYQKKFIELAKSVEHVQLLKQAILADLP; Engineered insulin binding Y variant) ?
Result: 57

---

test: Fraction of soluble product on expression in E. coli, estimated from SDS-PAGE; assay type: physicochemical; settings: Table 8, mutation study 4; MGSSHHHHHHGSS-[Y#####]
readout: Estimated soluble fraction (%)
Answer with a number only, understood to be in %.

Task: I am curious: what Estimated soluble fraction value has been reported for Y02674: insulin binding Y variant, Y00356 with K15Y, SEQ ID NO:146 (LAEAKEAAIAELDSYGVGAKYIKMIQHAHYVEVVQWLKQAILAHLP; Engineered insulin binding Y variant) ?
Result: 40

Task: I am curious: what Estimated soluble fraction value has been reported for Y00356: insulin binding Y variant, SEQ ID NO:140, template of mutation study 4 (LAEAKEAAIAELDSKGVGAKYIKMIQHAHYVEVVQWLKQAILAHLP; Engineered insulin binding Y variant) ?
Result: 43

Task: I am curious: what Estimated soluble fraction value has been reported for Y02683: insulin binding Y variant, Y00356 with I9L, SEQ ID NO:148 (LAEAKEAALAELDSKGVGAKYIKMIQHAHYVEVVQWLKQAILAHLP; Engineered insulin binding Y variant) ?
Result: 92

Task: I am curious: what Estimated soluble fraction value has been reported for Y02676: insulin binding Y variant, Y00356 with Q26E, SEQ ID NO:147 (LAEAKEAAIAELDSKGVGAKYIKMIEHAHYVEVVQWLKQAILAHLP; Engineered insulin binding Y variant) ?
Result: 55

---

assay: Fraction of soluble product on expression in E. coli, estimated from SDS-PAGE; format: physicochemical; settings: Table 7; Ylib002Naive.I selection; MGSSHHHHHHGSS-[Y#####]-A
Answer each item with its documented Estimated soluble fraction.
Answer with a number only, understood to be in %.

Task: I am curious: what Estimated soluble fraction value has been reported for Y00330: insulin binding Y variant from Ylib002Naive.I, SEQ ID NO:136 (LAEAKEAAIAELDSKGVGAKYIKMIQMAKHVETVQYMKQAILASLPA; Engineered insulin binding Y variant) ?
Result: 67

Task: I am curious: what Estimated soluble fraction value has been reported for Y00301: insulin binding Y variant from Ylib002Naive.I, SEQ ID NO:133 (LAEAKEAAIAELDSKGVGARQIKWIQQAKSVEVVQWLKQAILADLPA; Engineered insulin binding Y variant) ?
Result: 83

Task: I am curious: what Estimated soluble fraction value has been reported for Y02309: C4 binding Y variant from Ylib002Naive.I, SEQ ID NO:35 (LAEAKEAAIAELDSKGVGADLIKKIQKAESVEGVQFWKQEILATLPA; Engineered C4 binding Y variant) ?
Result: 100

Task: I am curious: what Estimated soluble fraction value has been reported for Y00792: C4 binding Y variant from Ylib002Naive.I, SEQ ID NO:32 (LAEAKEAAIAELDSKGVGADLIKKIQQASSVEGVQFWKQEILAQLPA; Engineered C4 binding Y variant) ?
Result: 100

Task: I am curious: what Estimated soluble fraction value has been reported for Y02337: C4 binding Y variant from Ylib002Naive.I, SEQ ID NO:38 (LAEAKEAAIAELDSKGVGAAEIKWIQHASTVEGVQGRKQQILAELPA; Engineered C4 binding Y variant) ?
Result: 100

---

Answer each item with its documented Tm.
assay: Circular dichroism spectroscopy analysis (CD spectra, variable temperature measurement, refolding); type: physicochemical; settings: Table 4, mutation study 2; MGSSHHHHHHGSS-[Y#####]

Task: I am curious: what Tm value has been reported for Y00262: C4 binding Y variant, Y00001 with S23K, SEQ ID NO:18 (LAEAKEAAIAELDSKGINEAIIKKIERAESVEEVEYWKEEILAQLP; Engineered C4 binding Y variant) ?
Result: 61 °C

Task: I am curious: what Tm value has been reported for Y00293: insulin binding Y variant, Y00270 with E35Q + E39Q, SEQ ID NO:125 (LAEAKEAAIAELDSKGVGAYQIKFIELAKSVEHVQLLKQAILADLP; Engineered insulin binding Y variant) ?
Result: 56 °C

Task: I am curious: what Tm value has been reported for Y00291: C4 binding Y variant, Y00262 with E35Q + E39Q + A43K, SEQ ID NO:28 (LAEAKEAAIAELDSKGINEAIIKKIERAESVEEVQYWKQEILKQLP; Engineered C4 binding Y variant) ?
Result: 66 °C

Task: I am curious: what Tm value has been reported for Y00283: C4 binding Y variant, Y00262 with N18S, SEQ ID NO:20 (LAEAKEAAIAELDSKGISEAIIKKIERAESVEEVEYWKEEILAQLP; Engineered C4 binding Y variant) ?
Result: 61 °C
